target: B1R of the rat (Rattus norvegicus, UniProt P97583); construct: expressed in transfected cells; host or cells: CHO K1 cells (Chinese hamster ovary), stably transfected; experiment: FLIPR Ca2+ functional assay, B1R antagonism, rat B1R in CHO K1 cells; assay type: cell-based; settings: test substance 10 μM; rB1R CHO K1 cells; agonist Des-Arg9 bradykinin at EC80; % of maximum achievable inhibition
measureName: inhibition at 10 µM (%)

1. Cc1cccc(Cl)c1S(=O)(=O)N1CCn2cccc2C1CC(=O)NCC1CCN(Cc2ccccc2)C1 (stereo not shown); 99.1
2. Cc1ccc2[nH]c(C3CCN(C(=O)CC4c5cccn5CCN4S(=O)(=O)c4ccccc4)CC3)nc2c1 (stereo not shown); 32.9
3. Cc1ccc(S(=O)(=O)N2CCn3cccc3C2CC(=O)NC2CCCc3cc(CN4CCN(C)CC4)ccc32)cc1 (stereo not shown); 86.2
4. Cc1ccc(S(=O)(=O)N2CCn3cccc3C2CC(=O)NC2CCCc3cc(CN4CCN(C)CC4)ccc32)cc1Cl (stereo not shown); 99.4
5. Cc1cccc(Cl)c1S(=O)(=O)N1CCn2cccc2C1CC(=O)N(C)C(CN1CCOCC1)c1ccccc1 (stereo not shown); 4.54
6. N#Cc1cccnc1N1CCCN(C(=O)CC2c3cccn3CCN2S(=O)(=O)c2ccccc2)CC1 (stereo not shown); 33.9
7. CN1CCN(CC(NC(=O)CC2c3cccn3CCN2S(=O)(=O)c2cccc(C(F)(F)F)c2)c2ccccc2)CC1 (stereo not shown); 76.4
8. CN1CCN(Cc2ccc3c(c2)CCC(NC(=O)CC2c4cccn4CCN2S(=O)(=O)c2cccc(C(F)(F)F)c2)C3)CC1 (stereo not shown); 98.9
9. Cc1ccc(S(=O)(=O)N2CCn3cccc3C2CC(=O)NC2CCc3cc(CN4CCCCC4)ccc3C2)cc1Cl (stereo not shown); 99.5
10. Cc1ccc(S(=O)(=O)N2CCn3cccc3C2CC(=O)NC2CCc3cc(CNC(C)(C)C)ccc3C2)cc1 (stereo not shown); 101
11. Cc1ccc(S(=O)(=O)N2CCn3cccc3C2CC(=O)NC2CCCc3cc(CN4CCCCC4)ccc32)cc1Cl (stereo not shown); 98
12. O=C(CC1c2cccn2CCN1S(=O)(=O)c1ccc(Cl)c(Cl)c1)NC1CCc2cc(CN3CCCCC3)ccc2C1 (stereo not shown); 102
13. Cc1cccc(Cl)c1S(=O)(=O)N1CCn2cccc2C1CC(=O)N1CCN(c2ncc(C(F)(F)F)cc2Cl)CC1 (stereo not shown); -12.5

====

biological target: B1R of the rat (Rattus norvegicus); construct: expressed in transfected cells; host or cells: CHO K1 cells (Chinese hamster ovary), stably transfected; test: FLIPR Ca2+ functional assay, B1R antagonism, rat B1R in CHO K1 cells; type: cell-based; conditions: test substance 10 μM; rB1R CHO K1 cells; agonist Des-Arg9 bradykinin at EC80; % of maximum achievable inhibition
measureName: inhibition at 10 µM (%)

1. CCC(C)NCc1ccc2c(c1)CCC(NC(=O)CC1c3cccn3CCN1S(=O)(=O)c1ccc(C)cc1)C2 (centres unmarked); 98.4
2. Cc1ccc(S(=O)(=O)N2CCn3cccc3C2CC(=O)NC2CCc3cc(CN4C5CCCC4CC5)ccc3C2)cc1 (centres unmarked); 103
3. CNCc1ccc2c(c1)CCCC2NC(=O)CC1c2cccn2CCN1S(=O)(=O)c1cccc(C(F)(F)F)c1 (centres unmarked); 104
4. COc1ccc2cc(S(=O)(=O)N3CCn4cccc4C3CC(=O)NC3CCc4cc(CN5CCCCC5)ccc4C3)ccc2c1 (centres unmarked); 104
5. O=C(CC1c2cccn2CCN1S(=O)(=O)c1cccc(C(F)(F)F)c1)NC1CCCc2cc(CN3CCCC3)ccc21 (centres unmarked); 97.5

====

biological target: human B1R (Homo sapiens); construct: expressed in transfected cells; host or cells: CHO K1 cells (Chinese hamster ovary), stably transfected; test: FLIPR Ca2+ functional assay, B1R antagonism, human B1R in CHO K1 cells; format: cell-based; settings: test substance 10 μM; hB1R CHO K1 cells; agonist Lys-Des-Arg9 bradykinin at EC80; % of maximum achievable inhibition
Sequence (P46663 whole entry): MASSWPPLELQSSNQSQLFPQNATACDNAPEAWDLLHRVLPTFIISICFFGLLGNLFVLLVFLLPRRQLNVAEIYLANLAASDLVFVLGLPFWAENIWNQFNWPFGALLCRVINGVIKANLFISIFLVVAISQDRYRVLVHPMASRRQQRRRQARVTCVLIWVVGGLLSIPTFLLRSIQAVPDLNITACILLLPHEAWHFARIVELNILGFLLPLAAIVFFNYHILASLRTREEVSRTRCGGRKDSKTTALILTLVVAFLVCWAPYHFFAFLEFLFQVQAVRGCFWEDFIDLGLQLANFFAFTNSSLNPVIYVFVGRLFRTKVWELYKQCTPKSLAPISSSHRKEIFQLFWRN
Readings of inhibition at 10 µM for the listed molecules
measureName: inhibition at 10 µM

1. COc1ccc2cc(S(=O)(=O)N3CCn4cccc4C3CC(=O)NC3CCCc4cc(CN5CCCC5)ccc43)ccc2c1 (stereo not shown) [Example 98]; 99.9%
2. CNCc1ccc2c(c1)CCC(NC(=O)CC1c3cccn3CCN1S(=O)(=O)c1ccc(C)cc1)C2 (stereo not shown) [Example 140]; 96.1%
3. O=C(CC1c2cccn2CCN1S(=O)(=O)c1cccc(C(F)(F)F)c1)NC1CCc2cc(CN3C4CCCC3CC4)ccc2C1 (stereo not shown) [Example 88]; 99.9%
4. CCC(C)NCc1ccc2c(c1)CCC(NC(=O)CC1c3cccn3CCN1S(=O)(=O)c1ccc3cc(OC)ccc3c1)C2 (stereo not shown) [Example 121]; 99.9%
5. COc1ccc2cc(S(=O)(=O)N3CCn4cccc4C3CC(=O)NC3CCc4cc(CN5CCCC5)ccc4C3)ccc2c1 (stereo not shown) [Example 94]; 99.9%
6. O=C(CC1c2cccn2CCN1S(=O)(=O)c1cccc(C(F)(F)F)c1)NC1CCc2cc(CN3CCCC3)ccc2C1 (stereo not shown) [Example 84]; 99.8%
7. Cc1ccc(S(=O)(=O)N2CCn3cccc3C2CC(=O)NC2CCCc3cc(CN4CCN(C)CC4)ccc32)cc1Cl (stereo not shown) [Example 55]; 99.8%
8. COc1ccc2cc(S(=O)(=O)N3CCn4cccc4C3CC(=O)N[C@@H]3CCCc4cc(CN5CCCCC5)ccc43)ccc2c1 (stereo partly shown) [Example 9]; 99.5%
9. Cc1ccc(S(=O)(=O)N2CCn3cccc3C2CC(=O)NC2CCCc3cc(CN4CCCC4)ccc32)cc1 (stereo not shown) [Example 85]; 99.9%
10. CC(C)(C)NCc1ccc2c(c1)CCCC2NC(=O)CC1c2cccn2CCN1S(=O)(=O)c1cccc(C(F)(F)F)c1 (stereo not shown) [Example 82]; 99.9%
11. Cc1ccc(S(=O)(=O)N2CCn3cccc3C2CC(=O)NC2CCCc3cc(CN(C)C)ccc32)cc1 (stereo not shown) [Example 107]; 99.3%
12. Cc1ccc(S(=O)(=O)N2CCn3cccc3C2CC(=O)NC2CCc3cc(CNC(C)(C)C)ccc3C2)cc1Cl (stereo not shown) [Example 60]; 99.8%
13. COc1cc(C)c(S(=O)(=O)N2CCn3cccc3C2COCC(=O)NC2CCN(c3ccc(C(F)(F)F)cn3)CC2)c(C)c1 (stereo not shown) [Example 32]; 8.84%
14. O=C(CC1c2cccn2CCN1S(=O)(=O)c1cccc(C(F)(F)F)c1)NC1CCCc2cc(CN3CCCc4ccccc43)ccc21 (stereo not shown) [Example 90]; 54.6%
15. CC(C)(C)NCc1ccc2c(c1)CCC(NC(=O)CC1c3cccn3CCN1S(=O)(=O)c1cccc(C(F)(F)F)c1)C2 (stereo not shown) [Example 64]; 99.9%
16. CN(C)Cc1ccc2c(c1)CCCC2NC(=O)CC1c2cccn2CCN1S(=O)(=O)c1cccc(C(F)(F)F)c1 (stereo not shown) [Example 124]; 99.7%
17. Cc1cccc(Cl)c1S(=O)(=O)N1CCn2cccc2C1COCC(=O)N1CCC2(CC1)CCN(c1ccncc1)CC2 (stereo not shown) [Example 15]; 99.9%
18. COc1ccc2cc(S(=O)(=O)N3CCn4cccc4C3CC(=O)NC3CCCc4cc(CN5C6CCCC5CC6)ccc43)ccc2c1 (stereo not shown) [Example 95]; 99.7%
19. Cc1cccc(Cl)c1S(=O)(=O)N1CCn2cccc2C1COCC(=O)N1CCC(Oc2ccncc2)CC1 (stereo not shown) [Example 6]; 99.6%

====

Biological target: B1R of the rat (Rattus norvegicus)
Construct: expressed in transfected cells; host or cells: CHO K1 cells (Chinese hamster ovary), stably transfected
Sequence (P97583 1-337): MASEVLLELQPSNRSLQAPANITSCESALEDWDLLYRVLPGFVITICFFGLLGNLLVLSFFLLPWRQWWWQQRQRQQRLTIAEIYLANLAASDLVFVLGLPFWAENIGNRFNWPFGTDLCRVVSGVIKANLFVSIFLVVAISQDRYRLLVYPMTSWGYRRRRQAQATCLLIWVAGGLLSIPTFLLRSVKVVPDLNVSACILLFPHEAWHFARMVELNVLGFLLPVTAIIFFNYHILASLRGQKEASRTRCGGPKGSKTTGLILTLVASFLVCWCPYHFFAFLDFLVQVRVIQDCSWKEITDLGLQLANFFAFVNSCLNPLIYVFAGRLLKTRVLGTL
Assay: FLIPR Ca2+ functional assay, B1R antagonism, rat B1R in CHO K1 cells
Type: cell-based
Conditions: test substance 10 μM; rB1R CHO K1 cells; agonist Des-Arg9 bradykinin at EC80; % of maximum achievable inhibition
measureName: inhibition at 10 µM (%)

1) COc1cc(C)c(S(=O)(=O)N2CCn3cccc3C2CC(=O)N2CCN(c3ccccc3)CC2)c(C)c1 (stereo not drawn) [Example 145]; 57.7
2) COc1cc(C)c(S(=O)(=O)N2CCn3cccc3C2COCC(=O)N2CCC(Oc3ccncc3)C2)c(C)c1 (stereo not drawn) [Example 38]; 104
3) COc1cc(C)c(S(=O)(=O)N2CCn3cccc3C2COCC(=O)N(C)CCC2CCN(c3ccncc3)CC2)c(C)c1 (stereo not drawn) [Example 7]; 102
4) COc1ccc2cc(S(=O)(=O)N3CCn4cccc4C3CC(=O)NC3CCCc4cc(CN(C)C(C)(C)C)ccc43)ccc2c1 (stereo not drawn) [Example 104]; 103
5) Cc1cccc(Cl)c1S(=O)(=O)N1CCn2cccc2C1CC(=O)N1CCN(CCC#N)CC1 (stereo not drawn) [Example 253]; -39.1
6) O=C(CC1c2cccn2CCN1S(=O)(=O)c1ccccc1)N1CCN(Cc2ccccc2F)CC1 (stereo not drawn) [Example 234]; 17.3
